System: FXR:RXRa (NR concentration 270 nM, RXRa partner concentration 90 nM)
Test: PBM binding z-score (relative to random genomic background probes); higher = stronger binding; sequences stand for … in GC…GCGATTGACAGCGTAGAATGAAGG
Task for the reader: assign each of the following sequences its reported PBM binding z-score.
One number for each entry.

Task: Query (sequence): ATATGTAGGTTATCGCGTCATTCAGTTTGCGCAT ; field requested: PBM binding z-score
Result: 0.694

Task: Moving on to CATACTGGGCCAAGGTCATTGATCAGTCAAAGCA
Result: 3.54

In the following, a different sequence is considered.
Task: Query (sequence): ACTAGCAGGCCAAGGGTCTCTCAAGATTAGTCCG ; field requested: PBM binding z-score
Result: -1.54

---

System: LXRa homodimer (NR concentration 270 nM)
Assay: PBM binding z-score (relative to random genomic background probes); higher = stronger binding; sequences stand for … in GC…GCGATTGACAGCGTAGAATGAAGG
Short version: PBM binding z-score at least 0.9 is MET, less is NOT MET.

Record excerpt, results attached:
Task: Determine whether this sequence has PBM binding z-score no lower than 0.9: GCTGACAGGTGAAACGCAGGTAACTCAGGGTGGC
Result: NOT MET

Task: Moving on to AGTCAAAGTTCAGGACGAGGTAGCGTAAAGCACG
Result: MET

Task: Moving on to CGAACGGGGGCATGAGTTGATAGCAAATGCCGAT
Result: NOT MET

Task: Moving on to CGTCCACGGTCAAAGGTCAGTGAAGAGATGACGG
Result: MET

Task: Moving on to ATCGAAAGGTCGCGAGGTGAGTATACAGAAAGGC
Result: NOT MET

Switching to the query record.
Task: Determine whether this sequence has PBM binding z-score no lower than 0.9: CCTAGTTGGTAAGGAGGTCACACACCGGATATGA
Result: MET

---

System: RARa homodimer (NR concentration 270 nM)
Assay: PBM binding z-score (relative to random genomic background probes); higher = stronger binding; sequences stand for … in GC…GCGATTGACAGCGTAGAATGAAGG
Short version: PBM binding z-score at least 0.1 is Fulfilled, less is Not fulfilled.

Task: Determine whether this sequence has PBM binding z-score no lower than 0.1: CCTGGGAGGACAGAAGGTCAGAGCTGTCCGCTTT
Result: Fulfilled

Task: Moving on to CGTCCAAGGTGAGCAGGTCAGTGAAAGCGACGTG
Result: Not fulfilled

Task: Moving on to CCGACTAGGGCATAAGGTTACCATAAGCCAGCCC
Result: Not fulfilled

Task: Moving on to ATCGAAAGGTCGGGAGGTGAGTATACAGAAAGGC
Result: Fulfilled

Further cases:
Task: Determine whether this sequence has PBM binding z-score no lower than 0.1: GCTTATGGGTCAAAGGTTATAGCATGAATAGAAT
Result: Fulfilled

Task: Moving on to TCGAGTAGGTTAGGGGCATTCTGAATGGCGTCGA
Result: Not fulfilled

Task: Moving on to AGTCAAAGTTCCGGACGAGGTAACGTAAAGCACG
Result: Not fulfilled

Task: Moving on to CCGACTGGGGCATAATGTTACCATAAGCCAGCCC
Result: Not fulfilled

Task: Moving on to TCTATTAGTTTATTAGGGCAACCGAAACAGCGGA
Result: Fulfilled

Task: Moving on to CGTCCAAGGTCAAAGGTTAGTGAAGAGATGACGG
Result: Fulfilled

Task: Moving on to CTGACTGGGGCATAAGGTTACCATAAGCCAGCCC
Result: Not fulfilled

---

Task for the reader: assign each of the following sequences its reported PBM binding z-score.
Tested on: PPARg DBDmut IVT, anti-PPARg (DBD mutation: PPARg1 K132A/R137A, NR concentration 270 nM)
Assay: PBM binding z-score (relative to random genomic background probes); higher = stronger binding; sequences stand for … in GC…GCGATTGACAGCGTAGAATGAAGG
Give bare numbers.

Use these answered entries as a reference point.
Task: Query (sequence): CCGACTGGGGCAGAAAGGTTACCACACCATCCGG ; field requested: PBM binding z-score
Result: -0.799

Task: Moving on to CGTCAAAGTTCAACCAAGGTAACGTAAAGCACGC
Result: 0.664

Task: Moving on to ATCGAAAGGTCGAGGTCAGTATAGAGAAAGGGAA
Result: 1.29

Task: Moving on to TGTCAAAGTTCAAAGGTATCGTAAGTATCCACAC
Result: 1.08

Task: Moving on to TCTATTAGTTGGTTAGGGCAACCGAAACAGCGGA
Result: 0.941

Task: Moving on to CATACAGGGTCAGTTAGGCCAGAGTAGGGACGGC
Result: 0.259

Dear colleague, could you send me PBM binding z-score for each of the items below? Thanks.
1. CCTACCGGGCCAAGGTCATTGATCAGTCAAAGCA
2. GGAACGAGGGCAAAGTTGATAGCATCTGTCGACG
3. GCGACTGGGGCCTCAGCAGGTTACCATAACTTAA
4. CGAACTAGGTCATCCAGGGCAGTGAATACATTGA
5. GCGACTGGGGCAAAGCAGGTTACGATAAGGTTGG
6. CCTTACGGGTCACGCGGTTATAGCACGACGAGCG

Result:
1: -1.36; 2: -0.103; 3: -1.98; 4: 1.78; 5: -0.59; 6: 0.817

Dear colleague, could you send me PBM binding z-score for each of the items below? Thanks.
1. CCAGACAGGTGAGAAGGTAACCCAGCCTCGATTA
2. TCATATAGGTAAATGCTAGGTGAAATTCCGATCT
3. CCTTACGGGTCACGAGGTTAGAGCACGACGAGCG

Result:
1: -0.618; 2: 1.13; 3: 1.38

Dear colleague, could you send me PBM binding z-score for each of the items below? Thanks.
1. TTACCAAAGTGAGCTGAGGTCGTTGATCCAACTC
2. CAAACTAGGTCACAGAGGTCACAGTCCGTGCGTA
3. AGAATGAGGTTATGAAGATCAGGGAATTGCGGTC
4. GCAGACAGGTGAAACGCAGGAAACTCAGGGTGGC
5. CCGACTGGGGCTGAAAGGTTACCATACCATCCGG
6. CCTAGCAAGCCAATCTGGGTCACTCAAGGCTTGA
7. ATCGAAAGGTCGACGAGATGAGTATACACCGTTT
8. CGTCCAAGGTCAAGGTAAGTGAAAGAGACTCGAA

Result:
1: -0.706; 2: 2.69; 3: -0.347; 4: -0.37; 5: -1.01; 6: -0.0798; 7: 1.08; 8: 0.108

Dear colleague, could you send me PBM binding z-score for each of the items below? Thanks.
1. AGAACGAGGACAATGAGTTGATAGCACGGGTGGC
2. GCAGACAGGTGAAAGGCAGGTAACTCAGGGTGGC
3. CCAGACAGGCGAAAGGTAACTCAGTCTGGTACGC
4. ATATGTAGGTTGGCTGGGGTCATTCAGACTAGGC
5. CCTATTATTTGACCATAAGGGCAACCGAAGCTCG
6. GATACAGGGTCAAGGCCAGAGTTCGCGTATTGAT

Result:
1. -0.367
2. -1.25
3. -1.21
4. 1.7
5. 1.57
6. -0.0978

---

Task for the reader: assign each of the following sequences its reported PBM binding z-score.
System: RARa homodimer (NR concentration 270 nM)
Assay: PBM binding z-score (relative to random genomic background probes); higher = stronger binding; sequences stand for … in GC…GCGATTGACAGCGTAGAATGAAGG
One number for each entry.

Dear colleague, could you send me PBM binding z-score for each of the items below? Thanks.
1. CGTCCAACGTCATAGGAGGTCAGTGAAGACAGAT
2. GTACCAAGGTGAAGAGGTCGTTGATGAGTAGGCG
3. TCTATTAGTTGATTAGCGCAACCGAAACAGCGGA

Result:
1: 0.648; 2: -0.129; 3: 1.03

Dear colleague, could you send me PBM binding z-score for each of the items below? Thanks.
1. ATAACGAGGGCACGCTGAGTTGATAGCAGAGTAG
2. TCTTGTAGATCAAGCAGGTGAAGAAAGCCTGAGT

Result:
1. -0.277
2. -0.384

Dear colleague, could you send me PBM binding z-score for each of the items below? Thanks.
1. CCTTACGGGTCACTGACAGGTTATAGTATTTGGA
2. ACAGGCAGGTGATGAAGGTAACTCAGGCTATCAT
3. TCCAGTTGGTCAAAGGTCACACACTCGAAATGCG

Result:
0.728
0.0189
3.44

Dear colleague, could you send me PBM binding z-score for each of the items below? Thanks.
1. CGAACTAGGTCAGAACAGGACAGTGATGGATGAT
2. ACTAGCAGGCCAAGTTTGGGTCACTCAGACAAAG
3. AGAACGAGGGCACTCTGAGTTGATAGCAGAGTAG
4. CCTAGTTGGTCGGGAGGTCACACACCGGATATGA
5. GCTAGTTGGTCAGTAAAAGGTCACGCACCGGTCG
6. CAAACTAGGTCACCGGAAGGTGAAAGTCCGCATG
7. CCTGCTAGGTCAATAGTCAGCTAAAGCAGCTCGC

Result:
1: 0.336; 2: -0.139; 3: -0.677; 4: 2.58; 5: 4.45; 6: 0.555; 7: -1.08

Dear colleague, could you send me PBM binding z-score for each of the items below? Thanks.
1. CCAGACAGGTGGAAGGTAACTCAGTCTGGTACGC
2. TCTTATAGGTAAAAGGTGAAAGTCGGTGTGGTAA
3. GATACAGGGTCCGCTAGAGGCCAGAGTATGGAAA
4. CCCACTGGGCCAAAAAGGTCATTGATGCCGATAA

Result:
[0.246, 1.6, -1.34, 1.88]

Dear colleague, could you send me PBM binding z-score for each of the items below? Thanks.
1. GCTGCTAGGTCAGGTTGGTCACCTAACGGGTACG
2. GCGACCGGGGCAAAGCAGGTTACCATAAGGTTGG
3. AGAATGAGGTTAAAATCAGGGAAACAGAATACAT
4. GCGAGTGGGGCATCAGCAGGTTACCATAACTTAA
5. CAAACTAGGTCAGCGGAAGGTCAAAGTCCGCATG

Result:
0.0555
-0.661
0.961
-0.613
1.75
